target: LRRK2 (G2019S) (Homo sapiens, UniProt Q5S007, G2019S); experiment: LRRK2 G2019S enzyme inhibition, ADP-Glo kinase assay
Sequence (Q5S007 970-2527 G2019S limits assumed): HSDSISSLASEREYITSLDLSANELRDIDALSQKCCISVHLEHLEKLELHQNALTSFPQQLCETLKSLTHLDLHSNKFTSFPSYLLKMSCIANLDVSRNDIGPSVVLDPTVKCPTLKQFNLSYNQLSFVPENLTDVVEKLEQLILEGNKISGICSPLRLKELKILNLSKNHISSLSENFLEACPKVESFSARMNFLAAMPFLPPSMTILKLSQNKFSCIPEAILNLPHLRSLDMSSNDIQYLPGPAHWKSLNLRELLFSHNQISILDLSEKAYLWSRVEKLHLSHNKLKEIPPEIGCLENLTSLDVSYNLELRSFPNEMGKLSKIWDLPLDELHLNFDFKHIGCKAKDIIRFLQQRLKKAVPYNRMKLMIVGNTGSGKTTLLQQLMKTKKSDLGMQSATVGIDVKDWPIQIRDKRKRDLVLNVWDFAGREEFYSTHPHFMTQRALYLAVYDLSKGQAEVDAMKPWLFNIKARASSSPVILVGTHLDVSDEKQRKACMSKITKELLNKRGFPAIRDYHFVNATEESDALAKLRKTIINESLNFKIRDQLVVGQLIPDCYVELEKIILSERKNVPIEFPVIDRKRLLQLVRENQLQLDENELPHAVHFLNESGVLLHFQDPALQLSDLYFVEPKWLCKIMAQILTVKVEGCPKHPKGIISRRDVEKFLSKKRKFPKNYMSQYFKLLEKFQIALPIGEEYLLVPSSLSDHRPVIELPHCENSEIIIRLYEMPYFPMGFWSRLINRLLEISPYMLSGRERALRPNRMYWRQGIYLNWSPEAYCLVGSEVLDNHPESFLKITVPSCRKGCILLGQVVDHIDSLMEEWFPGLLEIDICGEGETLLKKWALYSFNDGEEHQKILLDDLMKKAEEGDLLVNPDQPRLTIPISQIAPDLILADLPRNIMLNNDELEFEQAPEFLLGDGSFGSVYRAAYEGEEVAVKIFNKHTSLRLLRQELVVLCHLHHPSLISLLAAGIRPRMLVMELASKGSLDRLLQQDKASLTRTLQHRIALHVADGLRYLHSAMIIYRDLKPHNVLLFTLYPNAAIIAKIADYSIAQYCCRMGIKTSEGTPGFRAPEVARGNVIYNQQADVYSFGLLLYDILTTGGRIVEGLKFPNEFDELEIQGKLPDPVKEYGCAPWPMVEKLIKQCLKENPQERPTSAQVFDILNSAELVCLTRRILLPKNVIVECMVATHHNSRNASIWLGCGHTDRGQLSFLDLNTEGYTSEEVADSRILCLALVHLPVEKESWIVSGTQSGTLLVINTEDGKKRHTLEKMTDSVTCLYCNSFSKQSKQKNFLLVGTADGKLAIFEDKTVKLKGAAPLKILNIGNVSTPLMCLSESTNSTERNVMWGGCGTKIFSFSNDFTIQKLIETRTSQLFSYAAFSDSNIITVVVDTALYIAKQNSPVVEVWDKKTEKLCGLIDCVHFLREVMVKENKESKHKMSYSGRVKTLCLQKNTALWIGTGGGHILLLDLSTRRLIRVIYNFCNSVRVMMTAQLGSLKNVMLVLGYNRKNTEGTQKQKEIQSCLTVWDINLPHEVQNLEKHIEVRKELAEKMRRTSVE
pIC50: −log10 of the molar value.
OBSERVATION_TYPE: pIC50

[[record]]
chemical_string = "COCCNc1cc(Nc2ccc(P3(=O)CCN(C4CC4)CC3)cc2OC)nc2[nH]cc(C(F)(F)F)c12"
endpoint_result = "6.52 to 7.00"

[[record]]
chemical_string = "CCNc1cc(Nc2ccc(C(=O)N3CCC(N4CCOCC4)CC3)c3c2OCCO3)nc2[nH]cc(C#N)c12"
endpoint_result = "> 7.00"

[[record]]
chemical_string = "O=S(=O)(c1ccc(Nc2cc(C3CC3)c3c(C(F)(F)F)c[nH]c3n2)c2c1OCCO2)N1CCOCC1"
endpoint_result = "6.00 to 6.52"

[[record]]
chemical_string = "COc1cc(S(=O)(=O)N2CCC(N3CCOCC3)CC2)ccc1Nc1cc(NC2CCCC2)c2c(C#N)c[nH]c2n1"
endpoint_result = "> 7.00"

[[record]]
chemical_string = "COCCNc1cc(Nc2ccc(S(C)(=O)=O)cc2OC)nc2[nH]cc(C(F)(F)F)c12"
endpoint_result = "6.00 to 6.52"


----------
system: human DYRK1A and Tau; test: Tau phosphorylation inhibition, ClariCELL Kinase Cell-Based Assay (Carnabio); conditions: 0.5 uM
# inhibition at 0.5 µM >= 50% gives Met, anything below gives Not met

[[record]]
chemical_string = "CCNc1cc(Nc2ccc(C(=O)N3CCC(N4CCOCC4)CC3)c3c2OCC3)nc2[nH]cc(C(F)(F)F)c12"
assayed_target = "human DYRK1A and Tau"
assigned_label = "Met"

[[record]]
chemical_string = "O=C(c1ccc(Nc2cc(C3CC3)c3c(C(F)(F)F)c[nH]c3n2)c2c1CCO2)N1CCOCC1"
assayed_target = "human DYRK1A and Tau"
assigned_label = "Not met"

[[record]]
chemical_string = "CCNc1cc(Nc2ccc(C(=O)N3CCC(N4CCN(C)CC4)CC3)c3c2OCC3)nc2[nH]cc(C(F)(F)F)c12"
assayed_target = "human DYRK1A and Tau"
assigned_label = "Met"

[[record]]
chemical_string = "CCNc1cc(Nc2ccc(C(=O)N3CCN(C4COC4)CC3)c3c2OCC3)nc2[nH]cc(C(F)(F)F)c12"
assayed_target = "human DYRK1A and Tau"
assigned_label = "Met"

[[record]]
chemical_string = "CNc1cc(Nc2ccc(S(=O)(=O)N3CCC(N4CCOCC4)CC3)cc2OC)nc2[nH]cc(C(F)(F)F)c12"
assayed_target = "human DYRK1A and Tau"
assigned_label = "Met"

[[record]]
chemical_string = "O=C(c1ccc(Nc2cc(C3CC3)c3c(C(F)(F)F)c[nH]c3n2)c2c1CCO2)N1CC[C@H](N2CCOCC2)C1"
assayed_target = "human DYRK1A and Tau"
assigned_label = "Not met"

[[record]]
chemical_string = "CCNc1cc(Nc2ccc(C(=O)N3CCN(C4CC4)CC3)c3c2OCC3)nc2[nH]cc(C(F)(F)F)c12"
assayed_target = "human DYRK1A and Tau"
assigned_label = "Met"


----------
Entries and their remaining binding at 1 µM
Target: LRRK2 (Homo sapiens)
Sequence (Q5S007 whole entry): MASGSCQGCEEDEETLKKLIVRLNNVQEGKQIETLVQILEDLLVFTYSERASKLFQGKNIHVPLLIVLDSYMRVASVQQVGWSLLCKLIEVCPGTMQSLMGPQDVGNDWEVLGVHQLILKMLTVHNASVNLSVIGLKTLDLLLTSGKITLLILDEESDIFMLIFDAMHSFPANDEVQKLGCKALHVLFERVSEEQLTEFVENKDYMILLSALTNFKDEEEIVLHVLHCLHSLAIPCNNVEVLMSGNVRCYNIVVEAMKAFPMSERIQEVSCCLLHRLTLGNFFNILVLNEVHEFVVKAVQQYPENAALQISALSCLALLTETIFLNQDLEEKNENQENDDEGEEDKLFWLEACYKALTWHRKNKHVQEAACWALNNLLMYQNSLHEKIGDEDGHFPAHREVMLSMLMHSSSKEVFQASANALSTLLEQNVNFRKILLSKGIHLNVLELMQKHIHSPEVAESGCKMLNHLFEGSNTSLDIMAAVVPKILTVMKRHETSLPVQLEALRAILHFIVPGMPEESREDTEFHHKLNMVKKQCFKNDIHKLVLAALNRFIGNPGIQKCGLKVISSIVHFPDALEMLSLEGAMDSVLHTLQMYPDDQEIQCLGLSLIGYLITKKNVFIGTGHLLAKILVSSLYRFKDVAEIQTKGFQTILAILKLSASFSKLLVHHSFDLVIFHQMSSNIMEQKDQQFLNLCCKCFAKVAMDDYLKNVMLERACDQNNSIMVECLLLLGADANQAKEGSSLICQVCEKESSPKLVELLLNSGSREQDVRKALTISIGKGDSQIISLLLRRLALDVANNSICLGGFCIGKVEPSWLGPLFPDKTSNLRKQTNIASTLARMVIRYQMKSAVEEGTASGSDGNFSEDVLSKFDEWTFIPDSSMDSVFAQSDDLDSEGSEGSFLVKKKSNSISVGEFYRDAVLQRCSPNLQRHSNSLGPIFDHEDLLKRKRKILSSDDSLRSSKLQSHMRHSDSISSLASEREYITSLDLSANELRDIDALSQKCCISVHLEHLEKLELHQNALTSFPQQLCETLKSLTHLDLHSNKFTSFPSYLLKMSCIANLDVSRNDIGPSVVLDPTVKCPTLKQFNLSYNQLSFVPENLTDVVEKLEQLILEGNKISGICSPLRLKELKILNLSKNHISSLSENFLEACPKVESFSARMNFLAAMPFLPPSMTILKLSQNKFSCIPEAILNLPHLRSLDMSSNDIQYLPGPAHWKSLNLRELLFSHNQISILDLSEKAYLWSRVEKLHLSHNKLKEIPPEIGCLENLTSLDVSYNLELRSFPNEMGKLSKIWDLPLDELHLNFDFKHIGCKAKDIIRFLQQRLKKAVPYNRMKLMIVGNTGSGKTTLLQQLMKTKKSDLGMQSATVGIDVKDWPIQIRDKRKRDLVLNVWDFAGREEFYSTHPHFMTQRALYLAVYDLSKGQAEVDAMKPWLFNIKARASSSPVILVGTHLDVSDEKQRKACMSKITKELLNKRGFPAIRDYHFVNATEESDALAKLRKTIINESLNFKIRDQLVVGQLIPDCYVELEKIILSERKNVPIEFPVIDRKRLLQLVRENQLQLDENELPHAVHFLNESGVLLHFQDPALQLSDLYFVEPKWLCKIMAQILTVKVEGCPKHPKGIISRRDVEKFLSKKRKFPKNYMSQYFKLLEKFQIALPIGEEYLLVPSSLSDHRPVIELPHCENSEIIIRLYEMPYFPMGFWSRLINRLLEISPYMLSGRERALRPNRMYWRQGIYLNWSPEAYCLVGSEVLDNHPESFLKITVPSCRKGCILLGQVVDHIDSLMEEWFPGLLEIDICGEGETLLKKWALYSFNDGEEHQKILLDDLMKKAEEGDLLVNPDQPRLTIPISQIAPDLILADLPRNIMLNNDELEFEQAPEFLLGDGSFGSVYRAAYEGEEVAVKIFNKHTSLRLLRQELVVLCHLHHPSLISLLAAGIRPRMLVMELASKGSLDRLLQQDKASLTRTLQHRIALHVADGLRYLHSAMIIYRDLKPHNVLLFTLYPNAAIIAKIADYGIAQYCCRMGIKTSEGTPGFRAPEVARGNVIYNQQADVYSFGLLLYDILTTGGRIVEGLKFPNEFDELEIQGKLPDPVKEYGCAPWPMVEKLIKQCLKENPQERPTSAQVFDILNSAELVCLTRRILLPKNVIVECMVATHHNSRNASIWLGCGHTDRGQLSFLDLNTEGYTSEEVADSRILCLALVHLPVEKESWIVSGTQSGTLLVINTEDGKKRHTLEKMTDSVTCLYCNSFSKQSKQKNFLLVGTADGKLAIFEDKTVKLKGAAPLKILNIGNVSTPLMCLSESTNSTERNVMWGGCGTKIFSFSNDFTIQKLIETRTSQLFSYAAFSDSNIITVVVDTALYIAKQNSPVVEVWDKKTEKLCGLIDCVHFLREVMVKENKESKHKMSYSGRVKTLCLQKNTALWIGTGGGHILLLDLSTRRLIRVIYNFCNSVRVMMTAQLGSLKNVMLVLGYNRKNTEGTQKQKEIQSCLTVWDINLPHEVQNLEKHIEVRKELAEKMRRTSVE
Test: scanMAX Kinase panel (DiscoverX), % control
Assay type: binding
Parameters: purchased DiscoverX
Details: <35% = active
Protocol: Specifically, for Examples 162, 160, 105, 217, 205, 96, 207, 184, 206, 221, 238, and 237 selected among the example compounds of the present invention, it was decided to measure enzyme (kinase) selectivity by DiscoverX, and the experiment was conducted using a panel for scanMAX™ Kinase analysis. […] Also, in the enzyme selectivity of the present invention, if the control percentage for each enzyme was <35% (i.e., less than 35%), it was determined to have activity against the relevant enzyme.
OBSERVATION_TYPE: remaining binding at 1 µM (%)

[[record]]
chemical_string = "O=C(c1ccc(Nc2cc(C3CC3)c3c(C(F)(F)F)c[nH]c3n2)c2c1CCO2)N1CC[C@H](N2CCOCC2)C1"
endpoint_result = 36

[[record]]
chemical_string = "CCNc1cc(Nc2ccc(S(=O)(=O)N3CCC(N4CCOCC4)CC3)c3c2OCCO3)nc2[nH]cc(C(F)(F)F)c12"
endpoint_result = 4.5

[[record]]
chemical_string = "O=C(c1ccc(Nc2cc(C3CC3)c3c(C(F)(F)F)c[nH]c3n2)c2c1CCO2)N1CC[C@@H](N2CCOCC2)C1"
endpoint_result = 48

